B1: OR4K15 (parent)
chain: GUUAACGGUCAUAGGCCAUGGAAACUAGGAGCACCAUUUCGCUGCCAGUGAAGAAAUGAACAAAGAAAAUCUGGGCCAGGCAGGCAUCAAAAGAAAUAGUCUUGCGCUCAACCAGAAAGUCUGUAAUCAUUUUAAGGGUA

variants of: B1; assay: self-cleavage, relative activity (ratio to wild type); higher = more cleavage; in vitro, sequencing; the parent is a self-cleaving ribozyme
Lab note: anything with self-cleavage at or over 1 counts as met; the rest go in not met.

self-cleavage >= 1 for G73A A90G ?
not met

What do we get for U26C U103C ?
not met

What do we get for A69G A135G ?
not met

What do we get for A78C A116G ?
not met

What do we get for A78G U108A ?
not met

What do we get for A24G C34U ?
met

What do we get for A69G A116U ?
not met

What do we get for A18C A54G ?
not met

What do we get for A66U A135G ?
met

What do we get for C34U U43C ?
met

What do we get for A52G A140U ?
met

What do we get for A96U U131C ?
met

What do we get for A56G A140U ?
met

What do we get for A96G U120C ?
met

What do we get for A55G U132C ?
met

What do we get for A11U U49C ?
met

What do we get for U97G U108C ?
not met

What do we get for A18C A117G ?
met

What do we get for A47C A129G ?
not met

What do we get for U26A A54G ?
met

What do we get for A30G A116G ?
not met

What do we get for A55G A116U ?
not met

What do we get for A117U A135G ?
not met

What do we get for A11U A52U ?
met

What do we get for U100C A126U ?
not met

What do we get for U2A A23U ?
met

What do we get for A89U U103A ?
met

What do we get for A36C ?
met

What do we get for A82U A134G ?
not met

What do we get for A33C U132C ?
met

What do we get for A54G A116G ?
not met

What do we get for U26C G44A ?
met

What do we get for A89U A117G ?
met

What do we get for U70A A116G ?
not met

What do we get for U57G A64G ?
not met

What do we get for U3C A36G ?
met

What do we get for A90G U102C ?
met

What do we get for G7C U72A ?
not met

What do we get for A90G U124C ?
not met

What do we get for U43C A86G ?
met

What do we get for U9A A118G ?
not met

What do we get for U49G U139C ?
met

What do we get for A52U A140G ?
not met

What do we get for A62U G83A ?
met

What do we get for U9C G58A ?
met

What do we get for U43C A69G ?
not met

Each recorded value in this set is attributed to the RNAGym collection of RNA variant scans (doi:10.7554/elife.90254).
